B1: POU domain, class 4, transcription factor 1, residues 266 to 347; numbered along this chain, Q01851 (parent)
chain: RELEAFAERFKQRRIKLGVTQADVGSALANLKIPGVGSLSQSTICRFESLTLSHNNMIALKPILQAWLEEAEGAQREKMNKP

variants of: B1; assay: abundance fitness (aPCA) (normalised: wild type 0, dead -1); higher = more abundant; growth selection in yeast, the domain comes from the species named; settings: Homo sapiens
Consider the following variants; for each one, report its abundance fitness.
Answers are plain numbers.

Look over these answered cases.
1. RELEAFAERFKQRRIKLGVTQADVGSALANLKIPGVGSLSQSTICRFESLTLSHRNMIALKPILQAWLEEAEGAQREKMNKP ... 0.045
2. RELEAFFERFKQRRIKLGVTQADVGSALANLKIPGVGSLSQSTICRFESLTLSHNNMIALKPILQAWLEEAEGAQREKMNKP ... -0.721
3. RELEAFAERFKQRRIKLGVTQADVGSALANLKIPGVGSLSQSWICRFESLTLSHNNMIALKPILQAWLEEAEGAQREKMNKP ... -0.131
4. RELEAFAERFKQRRIKLGVTQADVGSALANLKIPGVGSLSQSTICRCESLTLSHNNMIALKPILQAWLEEAEGAQREKMNKP ... -0.969
5. RELEAFAERFKQRRIKLGVTQHDVGSALANLKIPGVGSLSQSTICRFESLTLSHNNMIALKPILQAWLEEAEGAQREKMNKP ... 0.01
6. RELEAFAERFKQRRIKLGVTQADVGSALANLKIPGVGSLSQSTICRFESLTLSHNNMIALKPILGAWLEEAEGAQREKMNKP ... -0.086
7. RELEAFAERFKQRRIKLGVTQADVGSALANLKIPGVGSLSQSTICRFESLTLSHNNMIALWPILQAWLEEAEGAQREKMNKP ... -0.07
8. RELEAFAERFKQRRIKLGVTQADVGSALANLKIPGVGSLSQSTICRFESLTLSHNNMIALKPILQAWQEEAEGAQREKMNKP ... -0.568
9. RELEAFAERFKQRRIKLGVTQADVGSALANLKIPAVGSLSQSTICRFESLTLSHNNMIALKPILQAWLEEAEGAQREKMNKP ... -0.397
10. RELEAFAERFKQRRIKLGVTQADVGSALANLKIPGVGSLSQSTICRFESLTLSHNPMIALKPILQAWLEEAEGAQREKMNKP ... -0.301

Hi team, please reply with abundance fitness for each item in this list.
1. RELEAFAERFKQRRIKLGVTQADVGSALANLKIPGVGSLSQNTICRFESLTLSHNNMIALKPILQAWLEEAEGAQREKMNKP
2. RELEAFAERFKQRRIKLGVTQADVGSALANLKIPGVGSLSQSTICRFESLTLSHNNMYALKPILQAWLEEAEGAQREKMNKP
3. RELEAFAERFKQRRIKLGVTQADVGSALANLKIPGVLSLSQSTICRFESLTLSHNNMIALKPILQAWLEEAEGAQREKMNKP
4. RELEAFAERFKQRRIKLGVTQADVGSALANLKIPGVGSLSQSTICRFESLTLSHNNMIALKPILQAWLDEAEGAQREKMNKP

[0.022, -0.118, -0.121, 0.011]

For each listed entry, give its abundance fitness.
1. RELEAFAERFKQRRIKLGVTQADVGSALANLKIPGVGSLSQSTICRFESLTLSHNNMIALKPIDQAWLEEAEGAQREKMNKP
2. RELEAFAERFKQRRIKLGVTQADVGSALANLKIPGVGSLSQSTICRFESLTLSHNNMIALKPILQAWLEEPEGAQREKMNKP
3. RELEAFAERFKQRRIKLGVTQADVGSALANLKIPGTGSLSQSTICRFESLTLSHNNMIALKPILQAWLEEAEGAQREKMNKP
4. RELEAFAERFKQRRIKLGVTQADVGSALANLKIPGVGSLSQSTICRFESLTLSHTNMIALKPILQAWLEEAEGAQREKMNKP
5. RELEAFAERFKQRRIKLGVTQADVGSALANLKIPGVGSLSQSTICRFESLTLSHNNMIALKPILQAWLEEAEGAQREKMNKD

[-0.652, -0.588, 0.24, 0.034, 0.019]

Lab note: each variant below needs its abundance fitness filled in.
1. RELEAFAERFKQLRIKLGVTQADVGSALANLKIPGVGSLSQSTICRFESLTLSHNNMIALKPILQAWLEEAEGAQREKMNKP
2. RELEAFAERFKQRVIKLGVTQADVGSALANLKIPGVGSLSQSTICRFESLTLSHNNMIALKPILQAWLEEAEGAQREKMNKP
3. RELEAFAERFKQRRIKLGVTQADVGSALANLKIPGVGSLSQSTICRFESLTLSHNNMIALKYILQAWLEEAEGAQREKMNKP
4. RELEAFAERFKQRRIKLGVTQADVGSALANLKIPGVGSLSQSTICRFESLTLSHNNMIALKPILQAWLEETEGAQREKMNKP
5. RELEAFAERFKQRRIKLGVTQADVGSALANLKIPGVGSLSQSTDCRFESLTLSHNNMIALKPILQAWLEEAEGAQREKMNKP
6. RELEAFAERFKQRRIKLGVTQADVGSALANLKIPGVGSLSQSTICRFESLTLSENNMIALKPILQAWLEEAEGAQREKMNKP
7. RELEAFAERFKARRIKLGVTQADVGSALANLKIPGVGSLSQSTICRFESLTLSHNNMIALKPILQAWLEEAEGAQREKMNKP

1. -0.148
2. -0.932
3. -0.562
4. 0.062
5. -0.957
6. 0.058
7. -0.004
